ASSAY COMMENT: In-vivo pharmacokinetic study in mice (bioavailability testing)
RUN CONDITIONS: mouse, plasma; oral (PO) and intravenous (IV) routes, female Balb/c nude mice
Experimental: Test compounds were administered to mice via oral (PO) and intravenous (IV) routes. The test compounds were dissolved at room temperature. The mice used in the study were Balb/c nude mice, all female, aged 6-8 weeks, with a body weight of 20-30 grams. Before administration, the mice had free access to food and water. Blood samples (approximately 0.03 mL per sample) were collected from the vein at appropriate time points. […]
In this section we review reported bioavailability values for a set of compounds.
Give just the number in %; leave the unit off.

// below: answered compounds
INSERT INTO results (sample_smiles, observed_value) VALUES
  ('CCc1cnc(CNC(=O)c2c(=O)c3ccc(N4CCCN(C)CC4)nc3n3c2sc2ccccc23)nc1', 66.8),
  ('Cc1cnc(CNC(=O)c2c(=O)c3ccc(N4CCCN(C)CC4)nc3n3c2sc2ccccc23)cn1', 33.8),
  ('CN1CCCN(c2ccc3c(=O)c(C(=O)NCc4ncc(F)cn4)c4sc5ccccc5n4c3n2)CC1', 60.7),
  ('COc1ccnc(CNC(=O)c2c(=O)c3ccc(N4CCCN(C)CC4)nc3n3c2sc2ccccc23)n1', 74.6),
  ('CCc1ccnc(CNC(=O)c2c(=O)c3ccc(N4CCCN(C)CC4)nc3n3c2sc2ccccc23)n1', 40.6);

bioavailability for "CN1CCCN(c2ccc3c(=O)c(C(=O)NCc4nccc(C#N)n4)c4sc5ccccc5n4c3n2)CC1" ?
49.1
